Test system: IL-17A-induced G-CSF production in human normal keratinocyte (NHK)
TEST_SUMMARY: NHK assay: IL-17A-induced G-CSF production in normal human keratinocytes
Type: cell-based
MEASUREMENT_CONDITIONS: Homo sapiens, Keratinocyte, 24 h, IL-17A 5 ng/mL, average if tested more than once
Experimental: IL-17A acts directly on keratinocytes through binding to dimeric receptor IL-17RA/RC and drives the production of a number of inflammatory mediators known to be elevated in psoriasis lesional tissue. IL-17A small molecule inhibitors that block the IL-17A to interact with IL-17R would inhibit the IL-17A signaling in its targeted cells such as keratinocytes. The compound functional activity is evaluated for its impact on IL-17A-induced G-CSF production in human normal keratinocyte (NHK). […]
Each entry below carries its recorded IC50.

# MOLECULE, RESULT
records = [
    ("CC(C)n1nccc1C(=O)NC(COC(C)(C)C(C)(F)F)c1nc2ccc([C@H](NC(=O)CC3CC(F)(F)C3)C3CC3)cc2[nH]1 (single isomer, unassigned)", "< 50 nM"),
    ("C[C@@H](NC(=O)CCC(F)(F)F)c1ccc2nc([C@@H](NC(=O)c3cnn(CC4CC(F)(F)C4)n3)C3CCC(F)(F)CC3)[nH]c2c1", "> 100 nM"),
    ("CC(C)n1nccc1C(=O)N[C@H](c1nc2ccc([C@H](NC(=O)CC3CC(F)(F)C3)C3CC3)cc2[nH]1)[C@@H]1C[C@H]2C[C@H]2C1", "< 50 nM"),
]

Here is the next item to consider.
## Input Kindly state the measured IC50 obtained for C[C@@H](NC(=O)CCC(F)(F)F)c1ccc2[nH]c([C@@H](NC(=O)C3(C)CC3(F)F)C3CCC(F)(F)CC3)nc2c1 (relative stereo) with IL-17A-induced G-CSF production in human normal keratinocyte (NHK).
## Output > 100 nM

====

IC50 values for the compounds below.
System: IL-17A-induced G-CSF production in human normal keratinocyte (NHK)
TEST_SUMMARY: NHK assay: IL-17A-induced G-CSF production in normal human keratinocytes
Type: cell-based
MEASUREMENT_CONDITIONS: Homo sapiens, Keratinocyte, 24 h, IL-17A 5 ng/mL, average if tested more than once

Consider the worked cases shown below.
# COMPOUND, RESULT
data = [
    ("O=C(CC1CC(F)(F)C1)N[C@@H](c1ccc2[nH]c([C@@H](NC(=O)c3nonc3C3CC3)C3CCC(F)(F)CC3)nc2c1)C1CC1", "< 50 nM"),
    ("C[C@@H](NC(=O)CCC(F)(F)F)c1ccc2[nH]c([C@@H](NC(=O)c3cnn(C)c3CCC(F)(F)F)C3CCC(F)(F)CC3)nc2c1", "> 100 nM"),
    ("Cc1c(C(=O)N[C@H](c2nc3cc([C@@H](C)NC(=O)CCC(F)(F)F)ccc3[nH]2)C2CCC(F)(F)CC2)cnn1CCC#N", "> 100 nM"),
]

Pending compound:
## Input GET /values?readout=IC50&item= COC[C@H](NC(=O)CC1CC(F)(F)C1)c1ccc2nc([C@H](COC(C)(C)C(F)(F)F)NC(=O)c3nonc3C3CC3)[nH]c2c1 (relative stereo)
## Output < 50 nM

====

System: IL-17A-induced G-CSF production in human normal keratinocyte (NHK)
TEST_SUMMARY: NHK assay: IL-17A-induced G-CSF production in normal human keratinocytes
Assay type: cell-based
MEASUREMENT_CONDITIONS: Homo sapiens, Keratinocyte, 24 h, IL-17A 5 ng/mL, average if tested more than once
MEASUREMENT_KIND: IC50

Before answering, review these 3 worked examples.
# COMPOUND, IC50
measured = [
    ("C[C@@H](NC(=O)CCC(F)(F)F)c1ccc2[nH]c([C@@H](NC(=O)c3cnnn3CCOC(F)F)C3CCC(F)(F)CC3)nc2c1", "50 to 100 nM"),
    ("Cc1c(C(=O)N[C@H](c2nc3cc([C@@H](C)NC(=O)CCC(F)(F)F)ccc3[nH]2)C2CCC(F)(F)CC2)cnn1CC(F)(F)F", "> 100 nM"),
    ("C[C@@H](NC(=O)CCC(F)(F)F)c1ccc2[nH]c([C@@H](NC(=O)c3cn(CCCC(F)(F)F)nn3)C3CCC(F)(F)CC3)nc2c1", "> 100 nM"),
]

## Input Entry `C[C@@H](NC(=O)CCC(F)(F)F)c1ccc2[nH]c([C@@H](NC(=O)c3c(C#N)cnn3CC3CCC3)C3CCC(F)(F)CC3)nc2c1` : reported IC50 = ?
## Output > 100 nM

## Input Any idea what IC50 was measured for CC(CC(=O)N[C@H](C)c1ccc2nc([C@@H](NC(=O)c3cc(F)ccc3F)C3CCC(F)(F)CC3)[nH]c2c1)C(F)(F)F (single isomer, unassigned) ?
## Output > 100 nM

## Input Using the record for `C[C@@H](NC(=O)CCC(F)(F)F)c1ccc2[nH]c([C@@H](NC(=O)c3cnn(CCOC(F)F)n3)C3CCC(F)(F)CC3)nc2c1` , report its IC50.
## Output > 100 nM
